target: PI3K-α (PIK3CA) in MDA-MB-453 cells (Homo sapiens, UniProt P42336); assay: PI3K-alpha kinase (PIK3CA) in vitro cell based assay, MDA-MB-453 cells, SureFire Ultra AlphaLisa; conditions: read-out: PI3K-α (PIK3CA) in vitro cell based assay IC50
Sequence (P27986 2-724): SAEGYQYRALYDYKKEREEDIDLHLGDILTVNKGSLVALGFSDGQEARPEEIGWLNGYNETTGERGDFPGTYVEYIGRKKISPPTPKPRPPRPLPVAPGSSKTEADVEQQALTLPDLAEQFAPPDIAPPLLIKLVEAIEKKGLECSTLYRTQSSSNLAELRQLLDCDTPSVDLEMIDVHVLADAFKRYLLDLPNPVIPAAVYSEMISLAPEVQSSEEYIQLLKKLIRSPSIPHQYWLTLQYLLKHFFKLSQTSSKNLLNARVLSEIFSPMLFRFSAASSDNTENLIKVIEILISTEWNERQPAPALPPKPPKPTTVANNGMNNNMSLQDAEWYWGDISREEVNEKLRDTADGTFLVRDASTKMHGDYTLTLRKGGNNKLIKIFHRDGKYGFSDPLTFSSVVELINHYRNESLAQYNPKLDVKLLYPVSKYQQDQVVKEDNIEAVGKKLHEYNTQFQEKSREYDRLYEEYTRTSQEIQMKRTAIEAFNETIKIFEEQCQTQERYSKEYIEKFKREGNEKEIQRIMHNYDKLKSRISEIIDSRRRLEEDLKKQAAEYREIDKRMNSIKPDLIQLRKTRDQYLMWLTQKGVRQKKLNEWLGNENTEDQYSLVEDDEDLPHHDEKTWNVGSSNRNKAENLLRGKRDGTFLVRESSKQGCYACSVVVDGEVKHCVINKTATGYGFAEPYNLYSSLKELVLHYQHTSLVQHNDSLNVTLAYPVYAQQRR
Sequence (P42336 whole entry): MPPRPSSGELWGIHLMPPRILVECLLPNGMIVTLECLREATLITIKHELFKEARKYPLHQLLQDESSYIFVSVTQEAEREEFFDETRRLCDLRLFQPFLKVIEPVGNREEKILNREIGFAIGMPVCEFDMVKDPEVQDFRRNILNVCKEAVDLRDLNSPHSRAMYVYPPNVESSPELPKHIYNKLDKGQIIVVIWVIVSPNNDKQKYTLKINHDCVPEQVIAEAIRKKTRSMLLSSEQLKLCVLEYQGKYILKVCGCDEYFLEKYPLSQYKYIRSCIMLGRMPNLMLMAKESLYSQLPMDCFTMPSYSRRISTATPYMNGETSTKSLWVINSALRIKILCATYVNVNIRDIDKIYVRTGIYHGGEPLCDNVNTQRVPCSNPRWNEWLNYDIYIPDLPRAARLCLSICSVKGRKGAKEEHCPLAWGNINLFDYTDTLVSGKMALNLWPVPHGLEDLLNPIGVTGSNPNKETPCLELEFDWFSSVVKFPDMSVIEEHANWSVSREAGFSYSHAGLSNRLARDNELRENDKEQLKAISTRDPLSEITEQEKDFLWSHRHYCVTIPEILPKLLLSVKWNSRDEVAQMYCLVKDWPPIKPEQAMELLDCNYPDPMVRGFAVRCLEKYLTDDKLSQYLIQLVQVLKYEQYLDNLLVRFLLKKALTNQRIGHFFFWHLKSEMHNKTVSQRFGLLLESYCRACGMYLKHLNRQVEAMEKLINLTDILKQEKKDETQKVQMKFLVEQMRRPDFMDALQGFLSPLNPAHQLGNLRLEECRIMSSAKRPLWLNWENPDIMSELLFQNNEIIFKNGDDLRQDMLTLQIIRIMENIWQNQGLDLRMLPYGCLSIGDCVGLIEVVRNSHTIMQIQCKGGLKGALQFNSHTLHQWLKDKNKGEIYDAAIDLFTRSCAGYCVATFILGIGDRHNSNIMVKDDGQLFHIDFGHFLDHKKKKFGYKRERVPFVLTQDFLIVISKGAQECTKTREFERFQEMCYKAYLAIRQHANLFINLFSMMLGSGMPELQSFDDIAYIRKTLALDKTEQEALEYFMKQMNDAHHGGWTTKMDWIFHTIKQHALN
pIC50: −log10 of the molar value.
Each entry below carries its reported pIC50.

Take a look at these entries with their results.
> print(dat)
                                   compound      measured
1  Cc1cc(C(C)Nc2ccccc2C(=O)O)c2oc(-n3ncc4c(C)cccc43)cc(=O)c2c1 (single isomer, unassigned) [Example 88]  6.30 to 7.00
2  Cc1cc(C(C)Nc2ccccc2C(=O)O)c2oc(-c3ccc4[nH]c(C)nc4c3)cc(=O)c2c1 (single isomer, unassigned) [Example 65]  6.30 to 7.00
3  Cc1cc([C@@H](C)Nc2ccccc2C(=O)O)c2oc(-c3cc4cnccc4o3)c(C(F)(F)F)c(=O)c2c1 [Example 209]        > 7.30
4  Cc1cc([C@@H](C)Nc2cccc(F)c2C(=O)O)c2oc(-c3ccc4nc(C)cn4c3)c(C)c(=O)c2c1 [Example 229]  6.30 to 7.00
5  Cc1cc(C(C)Nc2ccccc2C(=O)O)c2oc(-n3ncc4ccccc43)cc(=O)c2c1 (single isomer, unassigned) [Example 49]        > 7.30
6  Cc1cc(C(C)Nc2ccccc2C(=O)O)c2oc(-c3cc4cnccc4o3)c(C)c(=O)c2c1 (single isomer, unassigned) [Example 153]        > 7.30
7  Cc1cc(C(C)Nc2ccccc2C(=O)O)c2oc(-c3ccc4nc(C(F)(F)F)cn4c3)cc(=O)c2c1 (single isomer, unassigned) [Example 70]  7.00 to 7.30
8  Cc1cc(C(C)Nc2ccccc2C(=O)O)c2oc(-c3ccc4nn(C)cc4c3)c(C)c(=O)c2c1 (single isomer, unassigned) [Example 91]        > 7.30

# next compound below
The compound listed as Cc1cc([C@@H](C)Nc2ccc(Cl)nc2C(=O)O)c2oc(-c3cc4ccccc4[nH]3)c(C)c(=O)c2c1 [Example 196] has a reported pIC50 of > 7.30

====

Each entry below carries its reported IC50.
biological target: PI3K-α (PIK3CA) wild-type (WT), p110α/p85α complex (Homo sapiens, UniProt P42336); construct: Recombinant, catalytically active human full length PIK3KA Wild-type and H1047R mutant; 6×His (N); purchased EMD Millipore Sigma 14-602M; assay: PI3K-alpha kinase (PIK3CA) biochemical activity, ADP-Glo, wild-type; conditions: Soy PI lipid substrate
Sequence (P27986 whole entry partner, one chain of several): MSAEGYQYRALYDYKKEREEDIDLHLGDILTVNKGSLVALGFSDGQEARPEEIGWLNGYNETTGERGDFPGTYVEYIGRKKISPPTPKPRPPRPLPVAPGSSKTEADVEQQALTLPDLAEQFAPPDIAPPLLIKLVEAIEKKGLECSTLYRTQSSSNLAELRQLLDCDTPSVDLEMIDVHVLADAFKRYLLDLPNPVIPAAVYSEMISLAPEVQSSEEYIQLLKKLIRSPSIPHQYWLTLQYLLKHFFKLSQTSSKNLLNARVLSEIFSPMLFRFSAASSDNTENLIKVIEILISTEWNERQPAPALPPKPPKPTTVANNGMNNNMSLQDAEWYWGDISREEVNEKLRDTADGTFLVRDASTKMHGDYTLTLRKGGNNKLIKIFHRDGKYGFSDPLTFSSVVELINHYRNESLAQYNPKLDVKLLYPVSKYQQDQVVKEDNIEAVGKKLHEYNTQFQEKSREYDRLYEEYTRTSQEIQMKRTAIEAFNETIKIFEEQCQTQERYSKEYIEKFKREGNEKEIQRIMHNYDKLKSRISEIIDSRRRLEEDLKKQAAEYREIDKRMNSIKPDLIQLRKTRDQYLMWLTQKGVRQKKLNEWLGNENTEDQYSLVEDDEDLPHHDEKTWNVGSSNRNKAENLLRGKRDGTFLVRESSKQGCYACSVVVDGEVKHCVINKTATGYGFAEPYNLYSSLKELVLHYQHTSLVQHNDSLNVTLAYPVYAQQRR

Take a look at these entries with their results.
> print(dat)
                                   compound         measured
1  Cc1cc(C(C)Nc2cccc(F)c2C(=O)O)c2oc(-c3ccc4cnn(C)c4c3)cc(=O)c2c1 (single isomer, unassigned) [Example 221]   500 to 1000 nM
2  Cc1cc(C(C)Nc2ccccc2C(=O)O)c2oc(-c3ccc4ccn(C)c4c3)cc(=O)c2c1 (single isomer, unassigned)  1000 to 5000 nM

# next compound below
The compound listed as Cc1cc(C(C)Nc2ccccc2C(=O)O)c2oc(-c3nn(C)c4ccccc34)c(C)c(=O)c2c1 (single isomer, unassigned) has a reported IC50 of 500 to 1000 nM

Origin of the recorded values: patent US11878970B2
